Target: Bcl-2-like protein 10 (Homo sapiens) (UniProt Q9HD36)
Sequence (Q9HD36 whole entry, looked up): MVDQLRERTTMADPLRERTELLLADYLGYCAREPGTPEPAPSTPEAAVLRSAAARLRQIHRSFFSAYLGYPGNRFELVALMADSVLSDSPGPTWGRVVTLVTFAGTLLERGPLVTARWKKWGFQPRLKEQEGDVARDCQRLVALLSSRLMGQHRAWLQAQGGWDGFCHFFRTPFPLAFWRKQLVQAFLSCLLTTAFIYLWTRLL
Experiment: TR3 peptide-Bcl-B binding displacers, biochemical primary FP assay, phenotype converters (AID 1240);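 also: 0% = Bcl-B with tracer peptide and DMSO and 100% = tracer peptide lacking Bcl-B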
Conditions: GST-Bcl-B / FITC-TR3 peptide fluorescence polarization; stronger effect = higher value; compound at 3.75 mg/L
About 800 (1.6%) of roughly 50,000 compounds showed an effect of 50% or more. The sample holds strong results, similar compounds and a random draw of the others, so the mix is not that of the screen.
MEASUREMENT_LABEL: displacement (%)
Supply the numeric figure in %, leaving out any unit text.

The examples below pair each entry with its known result.
COMPOUND	UOM	displacement
Cc1sc(NC(=O)c2ccc(Br)o2)c(C(N)=O)c1C	%	10
CC(C)CCn1c(=O)[nH]c2ccccc21	%	10.2
COc1ccc(N/C=C/C(=O)c2ccco2)cc1	%	11.7
COC(=O)CSc1nc(NC(C)=O)nc(C)c1Br	%	4.5

Query string: Request body: readout displacement, system Bcl-2-like protein 10 (Homo sapiens) (UniProt Q9HD36), query `COc1cc(NC(=O)CCCOc2ccc(Cl)cc2Cl)c(OC)cc1Cl` . Return the value.
Result string: 0.2

Query string: Would you kindly repeat that for `COc1cc(-c2ccccc2)nc(N)n1` ?
Result string: -5.4

###

// values below are reported displacement
Biological target: Bcl-2-like protein 10 (Homo sapiens) (UniProt Q9HD36)
Experiment: TR3 peptide-Bcl-B binding displacers, biochemical primary FP assay, phenotype converters (AID 1240);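 also: 0% = Bcl-B with tracer peptide and DMSO and 100% = tracer peptide lacking Bcl-B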
Details: GST-Bcl-B / FITC-TR3 peptide fluorescence polarization; stronger effect = higher value; compound at 3.75 mg/L
The campaign covered roughly 50,000 compounds. About 800 (1.6%) showed an effect of 50% or more. Many of the other results were omitted from the sample, so strong results are more common in it than they were.
Supply the numeric figure in %, leaving out any unit text.

The examples below pair each entry with its known result.
COMPOUND	displacement (%)
COc1ccc2nc(NS(=O)(=O)c3ccc(Cl)cc3)c(Nc3ccc4[nH]c(=O)[nH]c4c3)nc2c1	-2.9
Cc1cc(Br)cc2c1NC(=O)C21OCCO1	-4.3
CC(=O)Nc1ccc(Nc2nc3ccccc3nc2NS(=O)(=O)c2ccc(Cl)cc2)cc1	-12.5
CCCS(=O)(=O)c1c(S(=O)(=O)CCC)c2c(C)cccn2c1C(N)=O	-9.8
COc1ccc(-c2cc(C(F)(F)F)n3ncc(C(=O)N4CCOCC4)c3n2)cc1OC	5.2

Query string: # lookup: displacement of O=C1C(=O)N(c2cccc(Br)c2)C(c2ccccc2)/C1=C(/O)c1ccccc1 (stereo not drawn)
Result string: 12

Query string: Would you kindly repeat that for `O=C(Nc1ccc(I)cc1)c1ccc(Cl)cc1Cl` ?
Result string: 6.9

Query string: Would you kindly repeat that for `CN(C)CCCNC(=O)c1ccc(N(C)S(=O)(=O)c2ccccc2)cc1` ?
Result string: -13.4

Query string: Would you kindly repeat that for O=C(c1ccccc1)N1CCN(C2CC(=O)N(CCc3ccccc3)C2=O)CC1 (stereo not drawn) ?
Result string: 3.9

Query string: Would you kindly repeat that for `CN(C)c1ccc(/C=C/C=C2/SC(N)=NC2=O)cc1` ?
Result string: -17.2

Query string: Would you kindly repeat that for O=C(CC1Nc2ccccc2NC1=O)Nc1cccc(C(=O)O)c1 (stereo not drawn) ?
Result string: -2.4

Query string: Would you kindly repeat that for CCc1ccc(C(=O)CC2(O)C(=O)Nc3ccc(Br)cc32)cc1 (stereo not drawn) ?
Result string: 2.3

Query string: Would you kindly repeat that for `COc1ccc(/C=C2\SC(N)=NC2=O)cc1` ?
Result string: 124

Query string: Would you kindly repeat that for `NC1=NC(=O)/C(=C/c2ccc(Br)cc2)S1` ?
Result string: 3.7

###

Target: Bcl-2-like protein 10 (Homo sapiens)
Test: TR3 peptide-Bcl-B binding displacers, biochemical primary FP assay, phenotype converters (AID 1240);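 also: 0% = Bcl-B with tracer peptide and DMSO and 100% = tracer peptide lacking Bcl-B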
Details: GST-Bcl-B / FITC-TR3 peptide fluorescence polarization; stronger effect = higher value; compound at 3.75 mg/L
In all, about 50,000 compounds went through this assay and about 800 (1.6%) showed an effect of 50% or more. The sample as a whole holds a higher share of strong results than the screen did.
MEASUREMENT_LABEL: displacement (%)
Supply the numeric figure in %, leaving out any unit text.

The examples below pair each entry with its known result.
COc1cc(/C=C(\C#N)c2nc3ccccc3[nH]2)c(Br)cc1O -96.8
COc1ccc([N+](=O)[O-])cc1-c1ccc(/C=C(/C#N)C(=O)Nc2cccc(Br)c2)o1 7.6
COc1ccccc1/C=C1\SC(=N)N(c2ccc(F)cc2)C1=O -8.6
CCOc1ccc2nc(NC(=O)c3ccccc3O)sc2c1 -1
COc1cc(/C=C(/C#N)c2nc3ccccc3[nH]2)c([N+](=O)[O-])cc1OCCC(C)C 69.6
Cc1cc(N2C(=O)NC(=O)/C(=C\c3ccco3)C2=O)ccc1Br 74
COc1cc(C(=O)c2cc(Br)ccc2NC(=O)COc2ccccc2)cc(OC)c1OC 57.3
CCN(CC)c1ccc(/C=C2\C(=O)NC(=O)N(c3ccc(Br)c(C)c3)C2=O)o1 42.6
Cc1ccc(C(=O)O)cc1N1C(=O)c2ccc(C(=O)O)cc2C1=O 6.5
Cc1ccc(C(=O)O)cc1N1C(=O)c2ccccc2C1=O 7

Query string: # lookup: displacement of `Cc1ccc(C(=O)Nc2ccc(N3CCOCC3)cc2)cc1C`
Result string: 0.3

Query string: Would you kindly repeat that for `Cc1cc(N2C(=O)NC(=O)/C(=C\c3ccc(N4CCOCC4)o3)C2=O)ccc1Br` ?
Result string: -33.9

Query string: Would you kindly repeat that for `Cc1cc(C(=O)O)ccc1-n1c(C)ccc1C` ?
Result string: 81.4

Query string: Would you kindly repeat that for `CSc1ccc(/C=C(/C#N)C(=O)Nc2cccc(Br)c2)cc1` ?
Result string: 80.3

Query string: Would you kindly repeat that for `COc1cc(C(=O)c2cc(Br)ccc2NC(=O)COc2ccc(C)cc2)cc(OC)c1OC` ?
Result string: 17.2

Query string: Would you kindly repeat that for `Cc1ccc(C(=O)O)cc1-n1c(C)ccc1C` ?
Result string: 83.2

Query string: Would you kindly repeat that for `Nc1n[nH]c(N)c1N=Nc1cccc(C(F)(F)F)c1` ?
Result string: -2.4

Query string: Would you kindly repeat that for `Cc1cc(N2C(=O)NC(=O)/C(=C\c3ccc(N4CCCCC4)o3)C2=O)ccc1Br` ?
Result string: 55.5

Query string: Would you kindly repeat that for `CCOc1ccc2nc(NC(=O)c3ccccc3C(=O)O)sc2c1` ?
Result string: -7

Query string: Would you kindly repeat that for `COc1ccc(/C=C(\C#N)c2nc3ccccc3[nH]2)cc1OC` ?
Result string: 11

Query string: Would you kindly repeat that for `COc1ccc2[nH]c3c(c2c1)CCn1c-3nc2scc(-c3ccccc3)c2c1=O` ?
Result string: 0.2

Query string: Would you kindly repeat that for `CCOc1ccc2nc(NC(=O)C(c3ccccc3)c3ccccc3)sc2c1` ?
Result string: 66.7

###

Target: Bcl-2-like protein 10 (Homo sapiens) (UniProt Q9HD36)
Test: TR3 peptide-Bcl-B binding displacers, biochemical primary FP assay, phenotype converters (AID 1240);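 also: 0% = Bcl-B with tracer peptide and DMSO and 100% = tracer peptide lacking Bcl-B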
Conditions: GST-Bcl-B / FITC-TR3 peptide fluorescence polarization; stronger effect = higher value; compound at 3.75 mg/L
In all, about 50,000 compounds went through this assay and about 800 (1.6%) showed an effect of 50% or more. The full list was thinned out, with strong results kept by preference.
// values below are reported displacement
Supply the numeric figure in %, leaving out any unit text.

The examples below pair each entry with its known result.
COMPOUND	displacement, %
COc1ccc(CCNC(=O)C2CN(S(=O)(=O)c3ccccc3)CCN2S(=O)(=O)c2ccccc2)cc1OC (centres undefined)	-2.8
Cc1cc(/C=C2\C(=O)NC(=O)N(c3ccccc3)C2=O)c(C)n1-c1cccc([N+](=O)[O-])c1	9.1
Cc1cc(/C=C2\C(=O)NC(=O)N(c3ccc4c(c3)OCO4)C2=O)c(C)n1-c1ccccc1	16.1
O=C1N/C(=N/N=C\c2ccc(-c3ccc(Cl)cc3)o2)SC1Cc1ccccc1 (centres undefined)	17
CCc1nc2ccccc2n1CC(O)COC1CCCCC1 (centres undefined)	-10.7

Query string: # lookup: displacement of `Cc1cc(/C=C2\C(=O)NC(=O)N(c3ccc4c(c3)OCO4)C2=O)c(C)n1-c1ccc(F)cc1`
Result string: 8

Query string: Would you kindly repeat that for `C=C(C)CSc1nc2sc3c(c2c(=O)n1CC(=C)C)CC(C)(C)OC3` ?
Result string: -10.4

Query string: Would you kindly repeat that for `CCCOc1cccc(NC(=O)c2c(-c3ccccc3)noc2C)c1` ?
Result string: -5.5

Query string: Would you kindly repeat that for `Cc1cc(/C=C2\C(=O)NC(=O)N(c3ccc4c(c3)OCO4)C2=O)c(C)n1-c1cccc([N+](=O)[O-])c1` ?
Result string: 52.7

###

Molecular target: Bcl-2-like protein 10 (Homo sapiens)
Experiment: TR3 peptide-Bcl-B binding displacers, biochemical primary FP assay, phenotype converters (AID 1240);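 also: 0% = Bcl-B with tracer peptide and DMSO and 100% = tracer peptide lacking Bcl-B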
Conditions: GST-Bcl-B / FITC-TR3 peptide fluorescence polarization; stronger effect = higher value; compound at 3.75 mg/L
Out of some 50,000 compounds screened, about 800 (1.6%) showed an effect of 50% or more. Shown is part of a subset that was picked to be rich in strong results.
// values below are reported displacement
Supply the numeric figure in %, leaving out any unit text.

The examples below pair each entry with its known result.
MOLECULE	UOM	displacement
CCOC(=O)C1=NNC2C(=O)N(c3ccc(C)c(C)c3)C(=O)C12 (stereo not given)	%	4.5
C=CCOc1ccc(/C=C2\SC(=S)N(c3ccc(OC)cc3)C2=O)cc1OC	%	6.7
COc1cc(/C=C2/SC(=S)N(c3ccccc3)C2=O)ccc1OC(=O)c1ccc(F)cc1	%	4.7
CCc1nn2c(N)c(C=C3C=CC(=O)C=C3)c(=O)nc2s1	%	1.9

Now examine the next entry.
Query string: # lookup: displacement of `CCOc1ccc(/C=C2\SC(=S)N(c3ccc(OC)cc3)C2=O)cc1OC`
Result string: 114
